protocol: Half life in C57BL/6 mouse at 10 mg/kg, iv qd measured upto 24 hrs by LC-MS/MS analysis
Format: ADME, organism-based
setupConditions: in vivo
readoutType: half-life (h)

O=C(Nc1cc(F)c(F)cc1C(=O)O)c1ccc(-n2ccnc2)nn1 1.82

1 = CCCn1c(NC(=O)c2cc(C)nn2CC)nc2cc(C(N)=O)cc(OC3COC3)c21
2 = C#Cc1cc(NC(=O)c2ccc(-c3ccnnc3)nn2)c(C(=O)O)cc1F
Sorting ascending by half-life, which comes first: 1 or 2 ? Lab log: write the label of the selected item as the result.
1

====

Tested on: THP-1
protocol: Cytotoxicity against human THP-1 cells assessed as inhibition of cell growth upto 40 uM measured after 24 hrs in presence of PMA by CellTiter-Glo viability assay
Type: toxicity, cell-based
setupConditions: thp-1, 24 h
readoutType: Activity

Some molecules with known Activity results, for comparison:
O=C(Nc1cc(Br)ccc1C(=O)O)c1ccc(-c2ccnnc2)nn1 Non-Toxic
O=C(Nc1cc(Cl)c(F)cc1C(=O)O)c1ccc(-c2ccnnc2)nn1 Non-Toxic
O=C(Nc1cc(Br)c(F)cc1C(=O)O)c1ccc(-c2ccnnc2)nn1 Non-Toxic
CCCn1c(NC(=O)c2cc(C)nn2CC)nc2cc(C(N)=O)cc(OC3COC3)c21 Toxic

Proceeding to the next molecule to report its Activity.
Specify Activity for C#Cc1cc(NC(=O)c2ccc(-c3ccnnc3)nn2)c(C(=O)O)cc1F and stop.
Non-Toxic
